Hello, the source for this data is PubChem BioAssay AID1259407, in case you need it.

- System: CCRIS mutagenicity, Ames/micronucleus/aberration tests
- protocol: CCRIS mutagenicity studies
- condition: Test System: AMES SALMONELLA TYPHIMURIUM; Strain/Indicator: TA98; Metabolic Activation: HAMSTER, LIVER, S-9; Method: PREINCUBATION
Active and inactive are the calls of the source. The rule behind the calls is not given here.

[
  {
    "given.smiles": "Nc1ccc(-c2ccc(N)c(Br)c2)cc1Br",
    "mutagenic call": "active; positive"
  },
  {
    "given.smiles": "Nc1ccc(-c2ccc(N)cc2)cc1",
    "mutagenic call": "active; positive"
  },
  {
    "given.smiles": "Nc1ccc(-c2ccc(N)c(F)c2)cc1F",
    "mutagenic call": "active; positive"
  }
]
